Attribution: PubChem BioAssay (NCI)

Tested on: ACHN renal
Experiment: NCI tumour cell line growth inhibition, 48 h
TGI overview
parameter: TGI

[[record]]
molecularstring = "O=C(N/N=C/c1ccc([N+](=O)[O-])o1)c1ccc(C(=O)N/N=C/c2ccc([N+](=O)[O-])o2)cc1"
result = "> 100 µM"

[[record]]
molecularstring = "CC1(C)CC(=O)C2=C(C1)NC1=C(C(=O)CC(C)(C)C1)C2c1ccc([N+](=O)[O-])cc1"
result = "> 100 µM"

[[record]]
molecularstring = "Cc1c2c(n(CCc3ccccc3)c1C)N(C)N=C(C#N)S2(=O)=O"
result = "> 100 µM"

[[record]]
molecularstring = "CC(=O)Oc1ccc2c(c1)oc1c3ccc(OC(C)=O)cc3n(C)c(=O)c21"
result = "> 100 µM"

[[record]]
molecularstring = "N#CC(=C1CCCCC1)c1nc2ccccc2o1"
result = "> 100 µM"

[[record]]
molecularstring = "Cc1ccc(C(=O)Nc2ccc(S(=O)(=O)O)c3cc(S(=O)(=O)O)cc(S(=O)(=O)O)c23)cc1NC(=S)Nc1cc(C(=O)Nc2ccc(S(=O)(=O)O)c3cc(S(=O)(=O)O)cc(S(=O)(=O)O)c23)ccc1C"
result = "> 75 µM"


====

TGI overview
Test system: DU-145 prostate
Assay: NCI tumour cell line growth inhibition, 48 h
parameter: TGI

[[record]]
compound = "Cc1cc(-c2nc3ccccc3s2)ccc1N"
targetofassay = "DU-145 prostate"
result = "> 100 µM"

[[record]]
compound = "O=C(O)CCC/C=C\\C[C@H]1C=CC(=O)/C1=C/C[C@@H](O)CCc1cccc(C(F)(F)F)c1"
targetofassay = "DU-145 prostate"
result = "10.3 µM"

[[record]]
compound = "N#CC(C#N)N=Nc1ccc(Br)cc1"
targetofassay = "DU-145 prostate"
result = "> 51.1 µM"

[[record]]
compound = "CCN(CC)CCNC(=O)c1ccc(I)cc1"
targetofassay = "DU-145 prostate"
result = "> 100 µM"

[[record]]
compound = "COc1ccc2c(c1)/C(=C\\c1c(C)nc3sc(C)cn13)C(=O)N2"
targetofassay = "DU-145 prostate"
result = "> 46.1 µM"

[[record]]
compound = "CCCCCCCCCc1cc[n+](CC(=O)c2ccc([N+](=O)[O-])cc2)cc1"
targetofassay = "DU-145 prostate"
result = "2.04 µM"

[[record]]
compound = "C[C@@H]1Cc2c([nH]c3ccccc23)[C@@H](c2c(F)cc(NC3CN(CCCF)C3)cc2F)N1CC(F)(F)CO"
targetofassay = "DU-145 prostate"
result = "20.2 µM"

[[record]]
compound = "CCN(CC)c1ccc2c(c1)Oc1nc(N)c(C#N)c(N)c1C2Sc1ccc(OC)cc1 (stereo not drawn)"
targetofassay = "DU-145 prostate"
result = "3.25 µM"

[[record]]
compound = "CCn1cc(-c2ccnc3[nH]ccc23)c(-c2cccc(NC(=O)Nc3ccc(OCc4ccccc4)cc3)c2)n1"
targetofassay = "DU-145 prostate"
result = "> 25 µM"

[[record]]
compound = "O=C(C[n+]1ccccc1)N/N=C(\\Cc1nc2ccc([N+](=O)[O-])cc2[nH]c1=O)C(=O)Nc1cc(Cl)c(Cl)cc1Cl"
targetofassay = "DU-145 prostate"
result = "> 100 µM"

[[record]]
compound = "C/C=C1/CN2CCC3(O)c4ccccc4N4C=C(C(=O)OC)C1CC2C43O (stereo not drawn)"
targetofassay = "DU-145 prostate"
result = "> 100 µM"

[[record]]
compound = "Cc1cc(C)c2c(c1)CC1(Cc3c(C)ccc(C)c3C1=O)C2=O (stereo not drawn)"
targetofassay = "DU-145 prostate"
result = "> 100 µM"

[[record]]
compound = "COC(=O)Nc1nc2ccc(C(=O)c3ccc(N(C)C4COC4)cc3)cc2[nH]1"
targetofassay = "DU-145 prostate"
result = "> 100 µM"

[[record]]
compound = "CC(=O)N1c2ccccc2NC2=C(C(=O)N(Cc3ccccc3)C2(C)C)C1c1ccco1 (stereo not drawn)"
targetofassay = "DU-145 prostate"
result = "> 25 µM"

[[record]]
compound = "Cc1nccc2c3ccc(OCc4cn(-c5ccc(Cl)cc5)nn4)cc3n(CCCc3ccccc3)c12"
targetofassay = "DU-145 prostate"
result = "> 33.3 µM"

[[record]]
compound = "COc1cc(C=C2C(C)=NN(c3cccc(Cl)c3)C23C(Cl)C(=O)N3c2nc3ccccc3s2)ccc1O (stereo not drawn)"
targetofassay = "DU-145 prostate"
result = "48.7 µM"

[[record]]
compound = "Cc1ccc2c(c1)C(=O)N1CCC[C@H]1C=N2"
targetofassay = "DU-145 prostate"
result = "> 100 µM"

[[record]]
compound = "COc1cc(C2SC(N)=Nc3c2c(C)nn3C(=O)c2ccccc2O)ccc1O (stereo not drawn)"
targetofassay = "DU-145 prostate"
result = "> 10 µM"

[[record]]
compound = "CN(C)c1ncc(-c2ccc(C(F)(F)F)cc2)c(NC2CCCCCC2)n1"
targetofassay = "DU-145 prostate"
result = "> 100 µM"

[[record]]
compound = "Cc1ccc(N=N/C(=N/NC(=O)c2cc(Cl)ccc2C(=O)c2ccccc2)c2ccc(N(CCC#N)CCC#N)cc2C)cc1"
targetofassay = "DU-145 prostate"
result = "51.8 µM"

[[record]]
compound = "COc1cc(Nc2ncc(F)c(Nc3ccc4c(n3)NC(=O)C(C)(C)O4)n2)cc(OC)c1OC"
targetofassay = "DU-145 prostate"
result = "> 10 µM"

[[record]]
compound = "COc1cc(C(=O)O[C@@H]2[C@@H](OC(=O)c3cc(OC)c(OC)c(OC)c3)[C@@H](OC)O[C@@H]3CO[C@@H](c4ccccc4)O[C@@H]23)cc(OC)c1OC"
targetofassay = "DU-145 prostate"
result = "> 100 µM"

[[record]]
compound = "C=C(C)C1CC/C(C)=C/CC[C@]2(C)O[C@H]2CC/C(COC(C)=O)=C\\[C@@H]1O (stereo partly drawn)"
targetofassay = "DU-145 prostate"
result = "> 50 µM"

[[record]]
compound = "CN(C)Cc1cc(C(C)(C)C)ccc1-c1ccc(C(C)(C)C)cc1CN(C)C"
targetofassay = "DU-145 prostate"
result = "> 100 µM"

[[record]]
compound = "CC(=O)Oc1ccc2c(c1)oc1c3ccc(OC(C)=O)cc3n(C)c(=O)c21"
targetofassay = "DU-145 prostate"
result = "> 100 µM"

[[record]]
compound = "C[C@]12Cc3cnn(-c4ccc(F)cc4)c3NC1CC[C@@H]1C2CC[C@@]2(C)C1CC[C@@H]2O (stereo partly drawn)"
targetofassay = "DU-145 prostate"
result = "27.8 µM"

[[record]]
compound = "C/C(=N\\Nc1nc2ccccc2n1C)c1cnccn1"
targetofassay = "DU-145 prostate"
result = "> 100 µM"

[[record]]
compound = "Cc1cc(S(=O)(=O)/N=C(\\[N-]S(=O)(=O)c2ccc(Cl)cc2)[n+]2ccc(N(C)C)cc2)c(S)cc1Cl"
targetofassay = "DU-145 prostate"
result = "> 100 µM"

